Values from paper PMC9482650

# measured.on: DLG4_1, P78352
# Sequence (P78352 62-152): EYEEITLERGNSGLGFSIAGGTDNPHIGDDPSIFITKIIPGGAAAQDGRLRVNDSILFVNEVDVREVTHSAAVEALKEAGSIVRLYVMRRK
# test.summary: holdup assay
# Parameters: key: below the threshold = too weak to quantify, mostly under pKd 3.1 to 4
# conditions.used: plain residues with an end cap or a label only (N-terminal biotin on a linker: ado-ado)
If the reported pKd equals or exceeds 4, assign t. If not, assign f.

IGHEDLETAV [DGKI, O75912] = t
ATKDKKITTV [EXOC4, Q96A65] = t
EKPIDSETKM [SLC1A3, P43003] = f
WAKEKQHTRL [SLC17A1, Q14916] = f
QLKSGRDSTV [TMEM178A, Q8NBL3] = t
HDDYFYHDEL [RCN2, Q14257] = f
NKSEPFLTWL [WWTR1, Q9GZV5] = f
